# System: SN12C renal
# assayText: NCI tumour cell line growth inhibition, 48 h

givenSmiles | TGI
O=C(CCCN1CCC2(CC1)NC(=O)c1ccccc1O2)c1ccc(F)cc1 | > 100 µM
COc1cc2nccc(Oc3ccc(NC(=O)C4(C(=O)Nc5ccc(F)cc5)CC4)cc3)c2cc1Oc1ccc(N)cn1 | > 100 µM
C=CCn1c(C23CC4CC(CC(C4)C2)C3)n[nH]c1=S | > 100 µM
O=C(O)c1cc2cc(c1)N=Cc1ccccc1OCc1cccc(n1)COc1ccccc1C=N2 | > 25 µM
Cc1cccc(C(=O)/C=C/SC(=NC#N)SCc2ccccc2)c1 | 41.3 µM
Nc1ccc(N=Nc2ccc(-c3ccc(O)cc3)cc2)c2ccc(S(=O)(=O)O)cc12 | > 100 µM
CN(C)c1nc2n(CCO)c(-c3ccccc3)c(-c3ccccc3)nc-2c(=O)n1 | > 100 µM
CCOC(=O)N(c1ccccc1)c1cc(=O)n2ccccc2n1 | > 100 µM
CCCCOC(=O)NC(Nc1ccc(S(=O)(=O)Nc2ccc(OC)nn2)cc1)(C(F)(F)F)C(F)(F)F | > 100 µM
COCc1cc2c(cc1/C(=C/[N+](=O)[O-])CS(=O)(=O)c1ccccc1)OCO2 | > 100 µM

====

# Tested on: HCT-15 colon
# assayText: NCI tumour cell line growth inhibition, 48 h
Below: a set of entries, each annotated with reported TGI.
readoutType: TGI

molecule | readoutType | measValue
CC/C(=C(/CC)c1ccc([O-])cc1)c1ccc([O-])cc1.CC/C(=C(\CC)c1ccc([O-])cc1)c1ccc([O-])cc1.O=C([CH-]C(=O)c1ccccc1)c1ccccc1.O=C([CH-]C(=O)c1ccccc1)c1ccccc1.O=C([CH-]C(=O)c1ccccc1)c1ccccc1.O=C([CH-]C(=O)c1ccccc1)c1ccccc1.[Ti+4].[Ti+4] | TGI | > 100 µM
CN=C(NC#N)NCCSCc1nc[nH]c1C | TGI | > 100 µM
O=c1oc2nc(-c3ccccc3)cc(C(F)(F)F)c2n1Cc1ccccc1 | TGI | > 100 µM
O=C1C(C(c2ccccc2)N2CCOCC2)=C(O)C(c2ccccc2)N1c1ccccc1 (centres undefined) | TGI | > 10 µM
CC1CCN(CCCCCOc2ccc3oc4cc(Cl)ccc4c(=O)c3c2)CC1 | TGI | 4.1 µM
N#Cc1nc(COCc2ccccc2)oc1N | TGI | > 100 µM
C/C(=C\C1=C(Cl)C(=O)c2ccccc2C1=O)C(=O)O | TGI | 36.5 µM
CSCCC(N)P(C)(=O)O (centres undefined) | TGI | > 100 µM
CCOC(=O)[C@H]1Nc2c(cccc2[N+](=O)[O-])[C@H]2OCC[C@@H]12 | TGI | > 100 µM

====

# Test system: SK-MEL-28 melanoma
# assayText: NCI tumour cell line growth inhibition, 48 h
Documented TGI across a set of compounds
readoutType: TGI

compound | measValue
c1ccc(-c2cc(C3CO3)c3ccccc3n2)cc1 (centres undefined) | > 100 µM
NC(=S)Nc1cc(Cl)ccc1Cl | > 100 µM
CN=C(NC#N)NCCSCc1nc[nH]c1C | > 100 µM
COC(=O)C1=C(C(=O)OC)C23CC1C1C(C(=O)OC)=C(C(=O)OC)C12C1C=CC3C2C(=O)OC(=O)C21 (centres undefined) | > 100 µM
CC1(C)OC(C[C@]2(C#N)C[C@H](CCl)OC(C)(C)O2)C[C@@H](C[C@]2(C#N)C[C@H](CCl)OC(C)(C)O2)O1 (some centres undefined) | > 100 µM
O=C1Nc2ccccc2S/C1=C\c1cccc(C(F)(F)F)c1 | > 100 µM
Cc1ccc(S(=O)(=O)/N=C(\N)N(C)N=O)cc1 | > 100 µM
CN(N=O)C(=O)N[C@@H](C=O)[C@@H](O)[C@H](O)[C@H](O)CO | > 750 µM
O=C(O)c1cc2cc(c1)N=Cc1ccccc1OCc1cccc(n1)COc1ccccc1C=N2 | > 25 µM
O=C(NNc1ccnc2cc(Cl)ccc12)/C(=C\c1ccccc1Cl)NC(=O)c1ccccc1 | > 100 µM
CCN1C(NN)=NS(=O)(=O)c2ccccc21 | > 100 µM
O=C(O)[C@@H]1CCC(=O)N1C(c1ccc2c(c1)OCO2)c1ccc2c(c1)OCO2 | > 100 µM
CC(=O)c1cccc(NC(=O)C(=O)C(C2OC(=O)c3ccccc32)[N+](=O)[O-])c1 (centres undefined) | > 100 µM
CCOP(=O)(OCC)C(N)Cc1ccc(OC)c(OC)c1 (centres undefined) | > 100 µM
COc1ccc(C2=NN(C(=O)c3cc(OC)c(OC)c(OC)c3)C(c3ccc(Cl)cc3)C2)cc1OC (centres undefined) | > 55.9 µM
CC1CCN(CCCCCOc2ccc3oc4cc(Cl)ccc4c(=O)c3c2)CC1 | 13.7 µM
CCCCCCCCOC(CO)CO | > 100 µM
CC(C)(C#N)c1cc(F)cc(C(=O)Nc2cc(Nc3ncccc3-c3ncnc4nc[nH]c34)ccc2F)c1 | > 10 µM
CC(=O)c1cc2c(cc1Nc1c3ccccc3nc3occ(Cl)c13)OCO2 | > 100 µM
O=C(O)C1=C(C(=O)O)N(c2ccncc2)C(c2ccco2)=CC1c1ccccc1[N+](=O)[O-] (centres undefined) | > 54.8 µM
CC(=O)OC[C@@H]1[C@H]2CC[C@]3(C)[C@@H](OC(C)=O)CC[C@H]3[C@@H]2CC[C@H]1C1(C)SCCS1 | > 25 µM
CC(=O)Nc1sc([N+](=O)[O-])cc1S(=O)(=O)c1ccc(Cl)cc1 | > 100 µM
CCOC(=O)c1c2c(n(Cc3ccccc3)c1C)-c1ccccc1C(=O)C2=O | 41.4 µM
CCOc1cc2c(cc1O)/C(=N\O)C[C@@H]1[C@@H]2CC[C@]2(C)[C@@H](O)CC[C@@H]12 | > 53.5 µM
CCOC(=O)/C=C/c1cc2cc(-c3csc4ccccc34)ccc2[nH]1 | 21.6 µM
O=C1Nc2ccccc2S/C1=C\c1ccccc1C(F)(F)F | > 100 µM
O=P(NC12CC3CC(CC(C3)C1)C2)(N1CC1)N1CC1 | > 100 µM
Cc1cc(C2=NNC(=O)Cc3cc4c(cc32)OCCO4)cc(C)c1N | > 100 µM
Cc1noc(C)c1-c1cc(O)cc(C(O)c2ccccc2)c1 (centres undefined) | > 100 µM
O=C(O)NCc1ccccc1 (tested in a mixture with another compound) | > 100 µM
O=C1C(C(c2ccccc2)N2CCOCC2)=C(O)C(c2ccccc2)N1c1ccccc1 (centres undefined) | > 10 µM
COc1ccc(N=C2C(=Nc3ccc(OC)cc3)N(S(=O)(=O)c3ccccc3)C(=S)N2c2ccccc2)cc1 | > 100 µM
O=C(Nc1cccc(Oc2nnc(Cl)c3ccccc23)c1)Nc1ccc(Cl)c(C(F)(F)F)c1 | 3.54 µM
Cn1nnnc1N/N=C/c1ccccc1 | > 10 µM
COC(=O)[C@]12CSC[C@H]1C[C@H](c1ccccc1OC)N2 | > 100 µM
N#Cc1ccc(N2Cc3ccccc3OC3=C2C(=O)c2c(O)ccc(O)c2C3=O)cc1 | 0.62 µM
O=C(CC(C(=O)c1ccco1)c1cccs1)c1cccs1 (centres undefined) | > 100 µM
CC1CCC(O)(C(C)(C(=O)O)c2ccccc2)CC1 (centres undefined) | > 100 µM
C=C1CC[C@@H](Br)C(C)(C)[C@]12CCC(C)(O)C(Cl)C2 (some centres undefined) | 40.2 µM
O=C(O)c1ccc([N+]2=Cn3c(nc4ccccc43)C2)cc1 | > 100 µM
Cc1ccc2nc(-c3ccc(-n4c(C)nc(=O)c(-c5ccc(F)cc5)c4C)cc3)sc2c1 | 50.7 µM
Cc1cc(=O)[nH]o1 | > 100 µM
C=CC(C)(O)/C=C/C=C(\C)C(CC1OC1(C)C)OC(=O)/C(C)=C\C (centres undefined) | > 100 µM
COc1cnc2c(c1)C(=O)c1c-2n(CCCN2CCC(O)CC2)c(=O)c2cc(F)ccc12 | 9.8 µM
